# Test system: 266295-075-R-J1-PDC spheroid viability
# assay.comment: Anticancer human tumor 266295-075-R-J1-PDC patient-derived head and neck squamous carcinoma cell line growth inhibition [POLQ]
# experimental.context: second compound 0.1 µM; first compound 1 µM; hits give low values; spheroids with HUVEC and MSC
Answer each item with its documented viability, T/C.
All answers are understood in %, so give the number only.

Request: Can you share its viability, T/C? I mean this compound: C#Cc1c(F)ccc2cc(O)cc(-c3ncc4c(N5CC6CCC(C5)N6)nc(OCC56CCCN5CC(F)C6)nc4c3F)c12 (stereo not drawn) + Cc1cccc(N(C)C(=O)C2C(O)CCN2c2nc(C)cc(C(F)(F)F)c2C#N)c1
Result: 62.8

Request: One more compound: COc1cc2cc(C(=O)CCC(=O)O)sc2cc1OC + Cc1cccc(N(C)C(=O)C2C(O)CCN2c2nc(C)cc(C(F)(F)F)c2C#N)c1
Result: 111

Request: One more compound: O=C(c1cc(Cc2n[nH]c(=O)c3ccccc23)ccc1F)N1CCN(C(=O)C2CC2)CC1 + Cc1cccc(N(C)C(=O)C2C(O)CCN2c2nc(C)cc(C(F)(F)F)c2C#N)c1
Result: 89.6

* * *

# Test system: 266295-075-R-J1-PDC spheroid viability
# assay.comment: Anticancer human tumor 266295-075-R-J1-PDC cell line growth inhibition [POLQ];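 also: spheroids exposed to compounds for seven days before readout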
# experimental.context: second compound 0.316 µM; first compound 1 µM; hits give low values; spheroids with HUVEC and MSC
observation.type: viability, T/C (%)
All answers are understood in %, so give the number only.

Request: Please tell me: viability, T/C of Nc1ccn(C2OC(CO)C(O)C2(F)F)c(=O)n1 (stereo unspecified) + Nc1ccc(C#CCN(C(=O)Cc2ncc(C(F)(F)F)cc2C(F)(F)F)c2ccc(F)cc2)nn1 , system 266295-075-R-J1-PDC spheroid viability?
Result: 94.8

Request: One more compound: CC1COCCN1c1cc(-c2ccnn2C)c2ccnc(-c3ccn[nH]3)c2n1 (stereo unspecified) + Cc1cccc(N(C)C(=O)C2C(O)CCN2c2nc(C)cc(C(F)(F)F)c2C#N)c1
Result: 50.7

Request: One more compound: O=c1[nH]cc(F)c(=O)[nH]1 + Nc1ccc(C#CCN(C(=O)Cc2ncc(C(F)(F)F)cc2C(F)(F)F)c2ccc(F)cc2)nn1
Result: 89.6

Request: One more compound: CCc1cc2c(N3CCc4c(cc(Cn5ccnc5)cc4-c4cn(C)nc4C(F)(F)F)C3=O)cc(C)nc2c(OC)n1 + Cc1cccc(N(C)C(=O)C2C(O)CCN2c2nc(C)cc(C(F)(F)F)c2C#N)c1
Result: 122

Request: One more compound: COc1ccc([C@@H](O)c2cc(-c3ncnc4cc(N5CCOCC5)ccc34)c(F)cc2Cl)nn1 + Nc1ccc(C#CCN(C(=O)Cc2ncc(C(F)(F)F)cc2C(F)(F)F)c2ccc(F)cc2)nn1
Result: 75.4

Request: One more compound: COc1cccc2c1C(=O)c1c(O)c3c(c(O)c1C2=O)CC(O)(C(=O)CO)CC3OC1CC(N)C(O)C(C)O1 (stereo unspecified) + COC1C(OC(N)=O)C(O)C(Oc2ccc3c(O)c(NC(=O)c4ccc(O)c(CC=C(C)C)c4)c(=O)oc3c2C)OC1(C)C
Result: 74.8

* * *

# Tested on: 266295-075-R-J1-PDC spheroid viability
# assay.comment: Anticancer human tumor 266295-075-R-J1-PDC cell line growth inhibition [POLQ];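 also: spheroids exposed to compounds for seven days before readout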
# experimental.context: second compound 0.316 µM; first compound 1 µM; hits give low values; spheroids with HUVEC and MSC
observation.type: viability, T/C (%)
All answers are understood in %, so give the number only.

Request: Can you share its viability, T/C? I mean this compound: CC(C)n1c(=O)n(C)c2cnc3cc(F)c(-c4ccc(OCCCN5CCCCC5)nc4)cc3c21 + COC1C(OC(N)=O)C(O)C(Oc2ccc3c(O)c(NC(=O)c4ccc(O)c(CC=C(C)C)c4)c(=O)oc3c2C)OC1(C)C
Result: 100

Request: One more compound: COc1cc(C2c3cc4c(cc3C(OC3OC5COC(C)OC5C(O)C3O)C3COC(=O)C23)OCO4)cc(OC)c1O (stereo unspecified) + COC1C(OC(N)=O)C(O)C(Oc2ccc3c(O)c(NC(=O)c4ccc(O)c(CC=C(C)C)c4)c(=O)oc3c2C)OC1(C)C
Result: 87

Request: One more compound: CCc1c2c(nc3ccc(O)cc13)-c1cc3c(c(=O)n1C2)COC(=O)[C@]3(O)CC + Nc1ccc(C#CCN(C(=O)Cc2ncc(C(F)(F)F)cc2C(F)(F)F)c2ccc(F)cc2)nn1
Result: 73.5

Request: One more compound: COc1cccc(OCCCN)c1-c1cc(Nc2cnc(C#N)cn2)n[nH]1 + Cc1cccc(N(C)C(=O)C2C(O)CCN2c2nc(C)cc(C(F)(F)F)c2C#N)c1
Result: 63.9

Request: One more compound: CCc1c2c(nc3ccc(O)cc13)-c1cc3c(c(=O)n1C2)COC(=O)[C@]3(O)CC + COC1C(OC(N)=O)C(O)C(Oc2ccc3c(O)c(NC(=O)c4ccc(O)c(CC=C(C)C)c4)c(=O)oc3c2C)OC1(C)C
Result: 69.7

Request: One more compound: O=c1[nH]cc(F)c(=O)[nH]1 + Cc1cccc(N(C)C(=O)C2C(O)CCN2c2nc(C)cc(C(F)(F)F)c2C#N)c1
Result: 92.6

Request: One more compound: Nc1ccn(C2OC(CO)C(O)C2(F)F)c(=O)n1 (stereo unspecified) + COC1C(OC(N)=O)C(O)C(Oc2ccc3c(O)c(NC(=O)c4ccc(O)c(CC=C(C)C)c4)c(=O)oc3c2C)OC1(C)C
Result: 82.4

Request: One more compound: CCc1cc2c(N3CCc4c(cc(Cn5ccnc5)cc4-c4cn(C)nc4C(F)(F)F)C3=O)ccnc2c(OC)n1 + COC1C(OC(N)=O)C(O)C(Oc2ccc3c(O)c(NC(=O)c4ccc(O)c(CC=C(C)C)c4)c(=O)oc3c2C)OC1(C)C
Result: 129

Request: One more compound: CC1COCCN1c1cc(C2(S(C)(=N)=O)CC2)nc(-c2ccnc3[nH]ccc23)n1 (stereo unspecified) + Cc1cccc(N(C)C(=O)C2C(O)CCN2c2nc(C)cc(C(F)(F)F)c2C#N)c1
Result: 81.4

Request: One more compound: CC(C)n1c(=O)n(C)c2cnc3cc(F)c(-c4ccc(OCCCN5CCCCC5)nc4)cc3c21 + Nc1ccc(C#CCN(C(=O)Cc2ncc(C(F)(F)F)cc2C(F)(F)F)c2ccc(F)cc2)nn1
Result: 91.3

Request: One more compound: O=C(Nc1ccc(O)c(NS(=O)(=O)c2ccc(F)cc2)c1)c1ccc(-c2ccccc2)cc1 + Cc1cccc(N(C)C(=O)C2C(O)CCN2c2nc(C)cc(C(F)(F)F)c2C#N)c1
Result: 95.2

* * *

Answer each item with its documented viability, T/C.
# Tested on: 266295-075-R-J1-PDC spheroid viability
# assay.comment: Anticancer human tumor 266295-075-R-J1-PDC cell line growth inhibition [POLQ];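 also: spheroids exposed to compounds for seven days before readout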
# experimental.context: second compound 1 µM; first compound 0.316 µM; hits give low values; spheroids with HUVEC and MSC
All answers are understood in %, so give the number only.

Request: Can you share its viability, T/C? I mean this molecule: CC1COCCN1c1cc(-c2ccnn2C)c2ccnc(-c3ccn[nH]3)c2n1 (stereo unspecified) + Nc1ccc(C#CCN(C(=O)Cc2ncc(C(F)(F)F)cc2C(F)(F)F)c2ccc(F)cc2)nn1
Result: 59.1

Request: One more molecule: CCc1cc2c(N3CCc4c(cc(Cn5ccnc5)cc4-c4cn(C)nc4C(F)(F)F)C3=O)cc(C)nc2c(OC)n1 + Cc1cccc(N(C)C(=O)C2C(O)CCN2c2nc(C)cc(C(F)(F)F)c2C#N)c1
Result: 102

Request: One more molecule: Nc1ccn(C2OC(CO)C(O)C2(F)F)c(=O)n1 (stereo unspecified) + Nc1ccc(C#CCN(C(=O)Cc2ncc(C(F)(F)F)cc2C(F)(F)F)c2ccc(F)cc2)nn1
Result: 92

Request: One more molecule: CCc1cc2c(N3CCc4c(cc(Cn5ccnc5)cc4-c4cn(C)nc4C(F)(F)F)C3=O)cc(C)nc2c(OC)n1 + COC1C(OC(N)=O)C(O)C(Oc2ccc3c(O)c(NC(=O)c4ccc(O)c(CC=C(C)C)c4)c(=O)oc3c2C)OC1(C)C
Result: 102

Request: One more molecule: COc1cc(C2c3cc4c(cc3C(OC3OC5COC(C)OC5C(O)C3O)C3COC(=O)C23)OCO4)cc(OC)c1O (stereo unspecified) + COC1C(OC(N)=O)C(O)C(Oc2ccc3c(O)c(NC(=O)c4ccc(O)c(CC=C(C)C)c4)c(=O)oc3c2C)OC1(C)C
Result: 86.3

Request: One more molecule: COc1ccc([C@@H](O)c2cc(-c3ncnc4cc(N5CCOCC5)ccc34)c(F)cc2Cl)nn1 + Nc1ccc(C#CCN(C(=O)Cc2ncc(C(F)(F)F)cc2C(F)(F)F)c2ccc(F)cc2)nn1
Result: 81.1

Request: One more molecule: O=c1[nH]cc(F)c(=O)[nH]1 + Cc1cccc(N(C)C(=O)C2C(O)CCN2c2nc(C)cc(C(F)(F)F)c2C#N)c1
Result: 95.2

Request: One more molecule: CCc1c2c(nc3ccc(O)cc13)-c1cc3c(c(=O)n1C2)COC(=O)[C@]3(O)CC + Nc1ccc(C#CCN(C(=O)Cc2ncc(C(F)(F)F)cc2C(F)(F)F)c2ccc(F)cc2)nn1
Result: 101

Request: One more molecule: COc1cccc(OCCCN)c1-c1cc(Nc2cnc(C#N)cn2)n[nH]1 + Nc1ccc(C#CCN(C(=O)Cc2ncc(C(F)(F)F)cc2C(F)(F)F)c2ccc(F)cc2)nn1
Result: 61.9

Request: One more molecule: O=c1[nH]cc(F)c(=O)[nH]1 + COC1C(OC(N)=O)C(O)C(Oc2ccc3c(O)c(NC(=O)c4ccc(O)c(CC=C(C)C)c4)c(=O)oc3c2C)OC1(C)C
Result: 93.2

Request: One more molecule: C=CC(=O)N1CCN(c2nc(=O)n(-c3c(C)ccnc3C(C)C)c3nc(-c4c(O)cccc4F)c(F)cc23)C(C)C1 (stereo unspecified) + COC1C(OC(N)=O)C(O)C(Oc2ccc3c(O)c(NC(=O)c4ccc(O)c(CC=C(C)C)c4)c(=O)oc3c2C)OC1(C)C
Result: 93.4

Request: One more molecule: O=C(c1cc(Cc2n[nH]c(=O)c3ccccc23)ccc1F)N1CCN(C(=O)C2CC2)CC1 + Cc1cccc(N(C)C(=O)C2C(O)CCN2c2nc(C)cc(C(F)(F)F)c2C#N)c1
Result: 89.5

Request: One more molecule: CCc1cc2c(N3CCc4c(cc(Cn5ccnc5)cc4-c4cn(C)nc4C(F)(F)F)C3=O)ccnc2c(OC)n1 + Nc1ccc(C#CCN(C(=O)Cc2ncc(C(F)(F)F)cc2C(F)(F)F)c2ccc(F)cc2)nn1
Result: 97.5

Request: One more molecule: CC(C)n1c(=O)n(C)c2cnc3cc(F)c(-c4ccc(OCCCN5CCCCC5)nc4)cc3c21 + Cc1cccc(N(C)C(=O)C2C(O)CCN2c2nc(C)cc(C(F)(F)F)c2C#N)c1
Result: 95.3

Request: One more molecule: O=c1[nH]cc(F)c(=O)[nH]1 + Nc1ccc(C#CCN(C(=O)Cc2ncc(C(F)(F)F)cc2C(F)(F)F)c2ccc(F)cc2)nn1
Result: 95.6

Request: One more molecule: C=CCn1c(=O)c2cnc(Nc3ccc(N4CCN(C)CC4)cc3)nc2n1-c1cccc(C(C)(C)O)n1 + Cc1cccc(N(C)C(=O)C2C(O)CCN2c2nc(C)cc(C(F)(F)F)c2C#N)c1
Result: 77.4

Request: One more molecule: O=C(Nc1ccc(O)c(NS(=O)(=O)c2ccc(F)cc2)c1)c1ccc(-c2ccccc2)cc1 + Nc1ccc(C#CCN(C(=O)Cc2ncc(C(F)(F)F)cc2C(F)(F)F)c2ccc(F)cc2)nn1
Result: 83.5

Request: One more molecule: CNCc1ccc(-c2[nH]c3cc(F)cc4c3c2CCNC4=O)cc1 + COC1C(OC(N)=O)C(O)C(Oc2ccc3c(O)c(NC(=O)c4ccc(O)c(CC=C(C)C)c4)c(=O)oc3c2C)OC1(C)C
Result: 90.5

Request: One more molecule: CC1COCCN1c1cc(C2(S(C)(=N)=O)CC2)nc(-c2ccnc3[nH]ccc23)n1 (stereo unspecified) + COC1C(OC(N)=O)C(O)C(Oc2ccc3c(O)c(NC(=O)c4ccc(O)c(CC=C(C)C)c4)c(=O)oc3c2C)OC1(C)C
Result: 95.2

Request: One more molecule: O=C(c1cc(Cc2n[nH]c(=O)c3ccccc23)ccc1F)N1CCN(C(=O)C2CC2)CC1 + Nc1ccc(C#CCN(C(=O)Cc2ncc(C(F)(F)F)cc2C(F)(F)F)c2ccc(F)cc2)nn1
Result: 91.9

Request: One more molecule: CC1COCCN1c1cc(-c2ccnn2C)c2ccnc(-c3ccn[nH]3)c2n1 (stereo unspecified) + Cc1cccc(N(C)C(=O)C2C(O)CCN2c2nc(C)cc(C(F)(F)F)c2C#N)c1
Result: 69.4
